- Target Or Test System: prostate specific membrane antigen (PSMA) (UniProt Q04609 1-750, limits assumed)
- Sequence (Q04609 whole entry): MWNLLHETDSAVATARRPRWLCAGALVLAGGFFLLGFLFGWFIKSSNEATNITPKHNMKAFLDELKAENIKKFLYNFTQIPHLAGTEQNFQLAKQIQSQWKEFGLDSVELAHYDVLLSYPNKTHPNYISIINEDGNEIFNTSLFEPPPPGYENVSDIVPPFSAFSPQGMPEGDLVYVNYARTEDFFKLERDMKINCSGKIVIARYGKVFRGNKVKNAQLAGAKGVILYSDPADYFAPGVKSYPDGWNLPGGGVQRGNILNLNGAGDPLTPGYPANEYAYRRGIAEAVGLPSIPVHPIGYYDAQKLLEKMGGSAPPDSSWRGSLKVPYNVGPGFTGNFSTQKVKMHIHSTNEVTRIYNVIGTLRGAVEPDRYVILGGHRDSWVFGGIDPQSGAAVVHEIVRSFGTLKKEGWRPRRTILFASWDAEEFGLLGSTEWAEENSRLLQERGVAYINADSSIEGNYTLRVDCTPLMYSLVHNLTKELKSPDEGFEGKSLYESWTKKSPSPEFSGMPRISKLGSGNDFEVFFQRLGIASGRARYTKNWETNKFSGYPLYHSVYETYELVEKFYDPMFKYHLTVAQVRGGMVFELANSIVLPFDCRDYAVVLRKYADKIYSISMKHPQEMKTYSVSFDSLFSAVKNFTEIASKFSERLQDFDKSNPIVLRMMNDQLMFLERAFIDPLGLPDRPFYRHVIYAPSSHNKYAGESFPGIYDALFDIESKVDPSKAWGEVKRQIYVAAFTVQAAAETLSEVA
- Assay Protocol: cell-based or functional assay
Cell Killing (%), C4-2 cell line overview
The number alone won't do; follow it with the unit.

Binder	Cell Killing (%), C4-2 cell line
Humanized Anti-PSMA Antibody Variant 1 ADC, MMAE payload, Non-Cleavable (PEG3) linker (antibody, human IgG1, kappa, V domains shown, para-acetyl phenylalanine (pAF) at position A114 (Kabat numbering; first residue of the heavy chain constant region), conjugated to non-cleavable (PEG3) MMAE drug-linker) VH: QVQLVQSGAEVKKPGASVKVSCKASGYTFTEYTIHWVRQAPGQRLEWMGNINPNNGGTTYNQKFEDRVTITRDTSASTAYMELSSLRSEDTAVYYCAAGWNFDYWGQGTTLTVSS VL: DIQLTQSPSFLSASVGDRVTITCKASQDVGTAVDWYQQKPGKAPKLLIYWASTRHTGVPSRFSGSGSGTEFTLTISSLQPEDFATYYCQQYNSYPLTFGGGTKVEIKR	64.5%
Humanized Anti-PSMA Antibody Variant 2 ADC, MMAE payload, Non-Cleavable (PEG3) linker (antibody, human IgG1, kappa, V domains shown, para-acetyl phenylalanine (pAF) at position A114 (Kabat numbering; first residue of the heavy chain constant region), conjugated to non-cleavable (PEG3) MMAE drug-linker) VH: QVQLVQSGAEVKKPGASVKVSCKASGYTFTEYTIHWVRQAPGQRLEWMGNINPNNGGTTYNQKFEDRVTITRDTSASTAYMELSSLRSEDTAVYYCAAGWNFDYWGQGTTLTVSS VL: DIQLTQSPSFLSASVGDRVTITCKASQDVGTAVDWYQQKPGKAPKLLIYWASTRHTGVPSRFSGSGSGTEFTLTISSLQSEDFATYYCQQYNSYPLTFGGGTKVEIKR	67%
Humanized Anti-PSMA Antibody Variant 2 ADC, MMAE payload, Short Cleavable (Valine-Citruline-Acetyl) linker (antibody, human IgG1, kappa, V domains shown, para-acetyl phenylalanine (pAF) at position A114 (Kabat numbering; first residue of the heavy chain constant region), conjugated to short cleavable (Valine-Citruline-Acetyl) MMAE drug-linker) VH: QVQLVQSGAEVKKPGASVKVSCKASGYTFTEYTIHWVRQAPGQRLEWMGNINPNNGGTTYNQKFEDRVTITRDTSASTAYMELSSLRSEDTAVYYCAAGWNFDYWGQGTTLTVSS VL: DIQLTQSPSFLSASVGDRVTITCKASQDVGTAVDWYQQKPGKAPKLLIYWASTRHTGVPSRFSGSGSGTEFTLTISSLQSEDFATYYCQQYNSYPLTFGGGTKVEIKR	81.5%

Consider the record given below.
Asked: GET /values?readout=Cell Killing (%), C4-2 cell line&item= Humanized Anti-PSMA Antibody Variant 1 ADC, MMAF payload, Short Cleavable (Valine-Citruline-Acetyl) linker (antibody, human IgG1, kappa, V domains shown, para-acetyl phenylalanine (pAF) at position A114 (Kabat numbering; first residue of the heavy chain constant region), conjugated to short cleavable (Valine-Citruline-Acetyl) MMAF drug-linker) VH: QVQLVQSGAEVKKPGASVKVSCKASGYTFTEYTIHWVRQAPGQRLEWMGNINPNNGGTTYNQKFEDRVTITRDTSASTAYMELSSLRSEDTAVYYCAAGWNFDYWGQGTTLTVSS VL: DIQLTQSPSFLSASVGDRVTITCKASQDVGTAVDWYQQKPGKAPKLLIYWASTRHTGVPSRFSGSGSGTEFTLTISSLQPEDFATYYCQQYNSYPLTFGGGTKVEIKR
Given back: 92%
